# assayedSystem: T1, human CAPRIN-1 protein on human cancer cells (human, UniProt Q14444 2-709)
# T1 construct: whole, on cells; Endogenous protein of human cancer cell lines (flow cytometry, ADCC, CDC) and of human tumour tissue sections (immunohistochemistry); also called cytoplasmic- and proliferation-associated protein 1; GPI-anchored membrane protein 1
# T1 sequence (looked up): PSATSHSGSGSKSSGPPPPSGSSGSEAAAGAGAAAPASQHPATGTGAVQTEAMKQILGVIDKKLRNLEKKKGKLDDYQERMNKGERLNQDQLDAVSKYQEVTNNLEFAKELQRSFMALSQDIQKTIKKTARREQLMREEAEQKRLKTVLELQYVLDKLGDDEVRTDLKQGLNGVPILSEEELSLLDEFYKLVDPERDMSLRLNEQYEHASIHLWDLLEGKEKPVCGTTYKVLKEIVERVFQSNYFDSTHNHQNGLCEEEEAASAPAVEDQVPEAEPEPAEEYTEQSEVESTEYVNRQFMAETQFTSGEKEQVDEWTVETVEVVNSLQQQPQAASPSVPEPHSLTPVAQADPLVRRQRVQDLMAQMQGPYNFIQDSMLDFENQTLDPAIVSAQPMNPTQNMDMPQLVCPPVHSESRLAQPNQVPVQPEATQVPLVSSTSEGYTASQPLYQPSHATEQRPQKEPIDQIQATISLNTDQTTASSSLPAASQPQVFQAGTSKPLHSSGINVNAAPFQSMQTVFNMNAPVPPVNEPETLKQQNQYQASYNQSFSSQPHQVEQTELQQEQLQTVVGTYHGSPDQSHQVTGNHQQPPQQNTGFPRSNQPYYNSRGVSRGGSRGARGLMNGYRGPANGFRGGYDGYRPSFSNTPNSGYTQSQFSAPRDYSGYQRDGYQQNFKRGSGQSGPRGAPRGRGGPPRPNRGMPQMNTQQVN
# testDescription: flow cytometry, hybridoma supernatant on human breast cancer, glioma, kidney, gastric, colon, lung cancer and leukemia cell lines; increase in MFI over control
Exercise: state measured increase in fluorescence intensity over control for each of the binders provided.

• monoclonal antibody #4 against CAPRIN-1 (antibody, V domains shown, Mouse monoclonal antibody from a hybridoma; also called the #4 monoclonal antibody to CAPRIN-1; antibody (d)) VH: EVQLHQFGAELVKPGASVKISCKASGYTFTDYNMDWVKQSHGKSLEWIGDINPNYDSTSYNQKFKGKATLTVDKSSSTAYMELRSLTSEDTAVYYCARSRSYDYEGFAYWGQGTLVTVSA VL: SGDRVSLSCRASQSISNYLHWYQQKSHESPRLLIKYASQSISGIPSRFSGSGSGTDFTLSINSVETEDFGMYFCQQSNSWPYTFGAGTKLEIKQ = ≥ 30%
• monoclonal antibody #1 against CAPRIN-1 (antibody, V domains shown, also called the #1 monoclonal antibody to CAPRIN-1; antibody (a)) VH: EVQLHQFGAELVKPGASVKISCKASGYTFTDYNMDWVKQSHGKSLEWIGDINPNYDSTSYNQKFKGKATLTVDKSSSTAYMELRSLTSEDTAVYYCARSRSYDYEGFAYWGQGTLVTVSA VL: DIQMTQSPASLSASVGETVTITCRASGNIHNYLAWYQQKQGKSPQLLVYNAKTLADGVPSRFSGSGSGTQYSLKINSLQPEDFGSYYCQHFWSTLTFGAGTKLELKR = ≥ 30%

Now take the following binder into account.
Identify measured increase in fluorescence intensity over control corresponding to monoclonal antibody #7 against CAPRIN-1 (antibody, V domains shown, Mouse monoclonal antibody from a hybridoma; also called the #7 monoclonal antibody to CAPRIN-1; antibody (g)) VH: LQESGAELARPGASVKLSCKASGYTFTSYWMQWVKQRPGQGLEWIGAIYPGDGDTRYTQKFKGKATLTADKSSSTAYMQLSSLASEDSAVYYCARGEYGNYFAYWGQGTTVTVSS VL: TSDASLGERVTITCKASQDINSYLSWFQQKPGKSPKTLIYRANRLVDGVPSRFSGSGSGQDYSLTISSLEYEDMGIYYCLQYDEFPLTFGGGTKLEIKQ
≥ 30%
